- Test system: Escherichia coli
- assay remarks: Antibacterial activity against Escherichia coli UB1005 incubated for 18 to 24 hrs by broth microdilution method
- Type: functional
Where a SMILES comes first, the peptide text is derived from it.
property measured: MIC (µM)
Return type: number; implicit unit µM.

// below: answered compounds
CC(C)C[C@H](NC(=O)[C@H](CCCNC(=N)N)NC(=O)[C@H](Cc1c[nH]c2ccccc12)NC(=O)[C@H](CCCNC(=N)N)NC(=O)[C@@H](NC(=O)[C@H](Cc1c[nH]c2ccccc12)NC(=O)[C@H](Cc1c[nH]c2ccccc12)NC(=O)[C@H](CCCNC(=N)N)NC(=O)[C@H](CC(C)C)NC(=O)[C@H](CCCNC(=N)N)NC(=O)[C@@H](N)CCCNC(=N)N)[C@@H](C)O)C(=O)N[C@@H](CCCCN)C(N)=O (H-RRLRWWTRWRLK-NH2) ... 4
CC(C)C[C@H](NC(=O)[C@H](CCCNC(=N)N)NC(=O)[C@H](CC(C)C)NC(=O)[C@H](CCCNC(=N)N)NC(=O)[C@@H](NC(=O)[C@H](CCCCN)NC(=O)[C@H](CC(C)C)NC(=O)[C@H](CCCNC(=N)N)NC(=O)[C@H](CC(C)C)NC(=O)[C@H](CCCNC(=N)N)NC(=O)[C@@H](N)CC(C)C)[C@@H](C)O)C(=O)N[C@@H](CCCCN)C(N)=O (H-LRLRLKTRLRLK-NH2) ... 4

As a next step, examine the compound that follows.
Look up and report measured MIC for this entry: CC1COc2c(N3CCN(C)CC3)c(F)cc3c(=O)c(C(=O)O)cn1c23 (stereo not drawn) 0.5
